- measurement_description: yeast display, Sf9 membrane polyspecificity reagent, FACS + sequencing; frameworks hold sequencing errors
endpoint: polyreactivity (PSR sort gate)

| ordered_residues | polyreactivity (PSR sort gate) |
| --- | --- |
| QVQLVESGGGLVQAGGSLRLSCAASGGIFRSYTMGWYRQAPGKERELVAAISSGASTSYADSVKGRFTISRDNAKNTVYLQMNSLKPEHTAVYYCAVGVLYAGYFYRYRYYYWGQGTQVTVSS | high polyreactivity |
| QVQLVESGGGLVQAGGSLRLSCAASGRIFYRYTMGWYRQAPGKERELVAVIRSGGRTYYADSVKGRFSISRDNAKNTLSLQMNSLKPEDTSVYYCATLVRVLTLRSDLNLYGYWGQGTQVTVSS | high polyreactivity |
| QVQLVESGGGLVQAGGSLRLSCAASGSIFDTYAMGWYRQAPGKERELVAAISSGGRTYYADSVKGRFSISRDNAKNTVYLQMNSLKPEDTAVYYCAVRPRPGYYYWGQGTQVSVSS | high polyreactivity |
| QVQLVESGGGLVQAGGSLRLSCAASGSIFKANGMGWYRQAPGKEREFVAAITRSGATTYYADSVKGRFTISRDNAKNTVYLQMNSLKPEDTAVYYCNVKAWRDLYYAGFDYWGQGTQVTVSS | low polyreactivity |
| QDQLVESGGGLVQAGGSLRLSCAASGITFFYYAMGWYRQAPGKERELVAAINWSGRTYYADSVKGRFTISRDNAKNTVYLQINSLKPEDTAVYYCAAVTYGPGVSVMDYWGQGTQVTVSS | low polyreactivity |
| QVQLVESGGGLVQAGGSLRLSCAASGSTFIVYAMGWYRQAPGKERELVAAIRGRGGSTYYADSVKGRFTISRDNAKNTVYLQMNSLKPEDTAVYYCAARGISPQEMYYWGQGTQVTVSS | high polyreactivity |

Problem: GET /values?readout=polyreactivity (PSR sort gate)&item= QVQLVESAGGVVQAGGSLRLSCAASGRIFGYNTMGWYRQAPGKERELVAAISGSGASTYYADSVKGRFTISRDNAKNTVYLQMNSLKAEDTAVYYCAAKAYYSTSPYHREHDSWGQGTQVTVSS
Result: low polyreactivity

Problem: What polyreactivity (PSR sort gate) value was documented for this sequence, QVQLVESGGGLVQAGGSLRLSCAASGRTFWSYAMGWYRQAPGKERELVAAITSSGGTTNYADSVKGRFTISRDNAKNTVYLQMNSLKPEDTAVYYCAAYSWYFGSRYDYWGQGTQVTVSS ?
Result: low polyreactivity
